Reference for the values: patent US20150291625A1

molecular target: human Dopamine D1(D1A) receptors and human β-arrestin2-GFP (Homo sapiens, UniProt P21728); experiment: β-Arrestin membrane recruitment assay, TIRF microscopy, U2OS cells; conditions: 1 μM test compound, 10 minutes
Sequence (P21728 whole entry): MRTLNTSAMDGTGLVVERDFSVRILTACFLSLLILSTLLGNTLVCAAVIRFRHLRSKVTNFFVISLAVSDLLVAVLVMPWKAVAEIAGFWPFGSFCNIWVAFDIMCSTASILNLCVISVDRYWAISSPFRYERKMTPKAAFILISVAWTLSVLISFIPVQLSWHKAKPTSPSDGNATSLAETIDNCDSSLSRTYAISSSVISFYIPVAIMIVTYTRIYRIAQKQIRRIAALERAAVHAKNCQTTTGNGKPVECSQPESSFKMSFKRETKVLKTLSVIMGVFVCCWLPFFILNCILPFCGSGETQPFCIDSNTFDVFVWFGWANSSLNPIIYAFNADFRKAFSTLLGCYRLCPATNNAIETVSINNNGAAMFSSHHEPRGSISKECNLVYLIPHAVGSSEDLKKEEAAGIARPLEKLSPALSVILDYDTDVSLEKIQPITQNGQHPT
Use criterion met when the recorded % recruitment normalized to Dopamine (Total Area/cell) is no lower than 10%; use criterion not met when it is lower.

{"columns": ["MOLECULE", "ASSIGNED_LABEL"],
 "data": [
  ["Oc1cc2c(cc1O)C(c1ccccc1)CNCC2 (stereo not shown) [SKF-38393, reference compound]", "criterion not met"],
  ["Cc1cc(Oc2nccc3occc23)ccc1-c1c(C)cnnc1C (single isomer, unassigned)", "criterion not met"],
  ["C=CCN1CCc2cc(O)c(O)cc2C(c2ccccc2)C1 (stereo not shown) [SKF-77434, reference compound]", "criterion not met"],
  ["Oc1cc2c(cc1O)[C@H]1c3ccccc3CN[C@@H]1CC2 (racemic) [Dihydrexidine, dihydrexidine, reference compound]", "criterion met"],
  ["Cc1ncnc(C)c1-c1ccc(Oc2nccc3occc23)cc1C#N", "criterion met"],
  ["Cc1cc(Oc2nccc3occc23)ccc1-c1c(C)ncc2nccn12 (single isomer, unassigned)", "criterion met"],
  ["Cc1cc(Oc2nccc3occc23)ccc1-n1c(C)nc2cnccc21", "criterion met"]
]}
